- Test system: 786-0 renal
- Assay Protocol: NCI-60 one-dose screen, 48 h (100 = growth as untreated, 0 = no growth, -100 = all killed)
- Experimental Context: 10 µM unless noted
The panel holds about 83,000 compounds, 20% with a hit somewhere; the sample as a whole holds those more often.
I'd appreciate it if you could supply growth values for the items below.
Give the number; % is assumed, so skip it.

Query: Looking for the measured growth of Cc1ccc(S(=O)(=O)N2CCCC2CO)cc1 (centres undefined) , can you help?
Response: 100

Query: Would you kindly share the measured growth for C#CCOc1ccc2ncnc(Nc3ccc(NC(=O)CCl)cc3)c2c1 ?
Response: -65.3

Query: Bench note: what growth did CCOC(=O)C1=NN(c2ccccc2)C(=O)/C1=C\N1C(=O)CC(=O)NC1=S show?
Response: 106

Query: Need growth of N=C(N)c1ccc(-c2ccc(-c3ccc(F)cc3)o2)o1 , thanks.
Response: 15.4

Query: Given the entry CCCCC(=O)c1ccco1 , report its measured growth.
Response: 97.5

Query: Fill in the blank: the reported growth of CC1Cc2c(Cl)ncnc2N(C)c2ccc(F)cc21 (centres undefined) is ____.
Response: 79

Query: Given the entry Cc1cnc(C(=O)NNc2nc3sc4c(c3c(=O)n2C)C(C)CCC4)cn1 (centres undefined) , report its measured growth.
Response: 0.305

Query: Suppose we examine the compound O=C1NC(=O)c2c1c1c3ccccc3ccc1c1[nH]c3ccc(Br)cc3c21 ; what growth value has been reported?
Response: 30.7

Query: // lookup growth for O=S(=O)(NCCNc1nccc(-c2c(-c3cccc(F)c3)nc3occn23)n1)c1ccc(Br)cc1
Response: 76.3

---

Record form. Attribute: growth. Fill in for each entry.
- Tested on: SF-268 CNS
- Assay Protocol: NCI-60 one-dose screen, 48 h (100 = growth as untreated, 0 = no growth, -100 = all killed)
- Experimental Context: 10 µM unless noted
About 83,000 compounds went through this panel and 20% of them were active in at least one assay; those are over-represented in the sample as a whole.
Answer in %, number only, no unit symbol.

Query: If you can, please state the reported growth value of O=C1CC(N2C(=O)/C(=C/C(Cl)=C\c3ccc([N+](=O)[O-])cc3)SC2=S)C(=O)N1c1ccc(Cl)cc1 (centres undefined) .
Response: 21.8

Query: # query: growth of entry Cc1cc(Cl)ccc1Nc1nc(C(F)(F)F)ccc1C(=O)N/N=C/c1ccc([N+](=O)[O-])cc1
Response: 13.8

Query: For O=C(CSc1nc2ccc([N+](=O)[O-])cc2[nH]1)Nc1cccc(C(F)(F)F)c1 , what is its reported growth?
Response: 24.3

Query: Item under review: O=S(=O)(NCCCNc1nccc(-c2c(-c3ccc(F)c(O)c3)nc3occn23)n1)c1ccccc1 . Reported growth?
Response: 97.3

Query: # growth lookup, item COc1ccc2cc(C(=O)c3coc4ccc(O)cc34)ccc2c1
Response: 90.1

Query: Given O=C(Cc1ccccc1)Nc1nc(O)c(/C=C2\C(=O)C=Cc3ccccc32)s1 , state its recorded growth.
Response: 99.2

Query: Endpoint output: growth of COc1ccc(NC(=O)c2sc3nc(C)c(C(=O)/C=C/c4cccc(OC)c4)cc3c2N)cc1 . Value?
Response: 34.4

Query: Endpoint output: growth of CCN(C(=O)N1CCN(c2cc3c(cc2F)c(=O)c(C(=O)O)cn3C2CC2)CC1)c1nc(-c2ccc(Cl)cc2)cs1 . Value?
Response: 21.8

Query: Consider the compound O=C(Nc1cc(Cl)ccc1O)c1ccc(Nc2ccnc(C(F)(F)F)c2)cc1 and give its measured growth.
Response: 69.1

meta.source: PubChem BioAssay (NCI)
